These data points were gathered from BindingDB's records for doi:10.1016/j.bmcl.2005.11.059.

- EXPERIMENTAL TARGET: Toll-like receptor 4 (Homo sapiens, UniProt O00206)
- Sequence (O00206 whole entry): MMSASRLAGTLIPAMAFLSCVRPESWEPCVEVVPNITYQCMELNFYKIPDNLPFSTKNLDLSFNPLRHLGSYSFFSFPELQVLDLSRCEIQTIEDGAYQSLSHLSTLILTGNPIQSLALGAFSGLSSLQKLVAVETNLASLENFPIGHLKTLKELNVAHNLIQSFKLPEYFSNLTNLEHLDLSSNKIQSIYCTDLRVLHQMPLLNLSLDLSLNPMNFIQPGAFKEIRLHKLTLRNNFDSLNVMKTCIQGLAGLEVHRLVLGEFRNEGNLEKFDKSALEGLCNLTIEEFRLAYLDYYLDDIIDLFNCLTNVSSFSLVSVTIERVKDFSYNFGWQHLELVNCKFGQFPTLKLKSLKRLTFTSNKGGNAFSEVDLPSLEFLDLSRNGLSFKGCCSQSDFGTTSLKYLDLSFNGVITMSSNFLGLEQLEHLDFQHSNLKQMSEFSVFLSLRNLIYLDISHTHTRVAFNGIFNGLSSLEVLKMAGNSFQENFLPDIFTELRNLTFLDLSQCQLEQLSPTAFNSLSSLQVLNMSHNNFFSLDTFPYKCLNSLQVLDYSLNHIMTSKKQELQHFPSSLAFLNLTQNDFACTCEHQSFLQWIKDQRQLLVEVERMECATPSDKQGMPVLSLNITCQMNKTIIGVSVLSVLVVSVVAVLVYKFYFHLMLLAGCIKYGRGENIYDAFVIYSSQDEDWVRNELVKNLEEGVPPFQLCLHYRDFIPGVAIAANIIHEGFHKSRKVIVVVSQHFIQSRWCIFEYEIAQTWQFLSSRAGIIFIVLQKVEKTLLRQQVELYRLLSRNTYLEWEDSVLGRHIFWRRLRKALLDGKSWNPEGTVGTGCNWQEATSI
- TEST SUMMARY: Inhibition of induction of NF-kappaB by LPS in HEK293 cells co-transfected with TLR4, CD14 and MD2
Each record is given yes (1) if its reported IC50 is strictly below 40 µM. Records at or above 40 µM are given no (0).

Worked examples follow.
* C=CCOc1c(C=NN=C(N)N)ccc(C=NN=C(N)N)c1OCC=C | no (0)
* CCCCOc1c(C=NN=C(N)N)ccc(C=NN=C(N)N)c1OCCCC | yes (1)
* CCCCCCCCOc1c(C=NN=C(N)N)ccc(C=NN=C(N)N)c1OCCCCCCCC | yes (1)
* CCCCCOc1c(C=NN=C(N)N)ccc(C=NN=C(N)N)c1OCCCCC | yes (1)
* COc1c(C=NN=C(N)N)ccc(C=NN=C(N)N)c1OC | no (0)

Kindly consider the entry below.
[Q] I wonder whether "CCCCCCOc1c(C=NN=C(N)N)ccc(C=NN=C(N)N)c1OCCCCCC" has IC50 below 40 µM. Can you tell?
[A] yes (1)

###

Overview of recorded IC50 for various molecules
- EXPERIMENTAL TARGET: Toll-like receptor 4 (Homo sapiens, UniProt O00206)
- TEST SUMMARY: Inhibition of induction of NF-kappaB by LPS in HEK293 cells co-transfected with TLR4, CD14 and MD2
Answer in µM, number only, no unit symbol.

Reference set, count: 3
- CCCOc1c(C=NN=C(N)N)ccc(C=NN=C(N)N)c1OCCC: 27.6
- CCOc1c(C=NN=C(N)N)ccc(C=NN=C(N)N)c1OCC: 35.6
- NC(N)=NN=Cc1ccc(C=NN=C(N)N)c(O)c1O: 59.1

[Q] Given the entry "CCCCCCCCCCCCCCOc1c(C=NN=C(N)N)ccc(C=NN=C(N)N)c1OCCCCCCCCCCCCCC" , report its measured IC50.
[A] 190

[Q] How about "NC(N)=NN=Cc1ccc(C=NN=C(N)N)cc1" ?
[A] 164
